Biological target: N-terminal truncated Wee 1 (Homo sapiens)
Assay: Wee 1 OY kinase assay
Details: read-out: WEE1OY IC50
pIC50: −log10 of the molar value.
Value kind: pIC50

Smiles notation: Cn1c(=O)c(-c2c(Cl)cccc2Cl)nc2cnc(Nc3ccc(N4CCOCC4)cc3)nc21
Result number: 6.84
--
Smiles notation: CCN(CC)CCOc1ccc(Nc2ncc3nc(-c4c(Cl)cccc4Cl)c(=O)n(C)c3n2)cc1
Result number: 6.07
--
Smiles notation: Cn1c(=O)c(-c2c(Cl)cncc2Cl)nc2cnc(Nc3ccc(N4CCOCC4)cc3)nc21
Result number: 6.00

a. CCN(CC)C(=O)c1ccc(Nc2ncc3nc(-c4c(Cl)cccc4Cl)c(=O)n(C)c3n2)cc1
b. CCN(CC)C(=O)c1ccc(Nc2ncc3nc(-c4c(Cl)cncc4Cl)c(=O)n(C)c3n2)cc1
## Task Record comparison, field pIC50: mark the lower of a and b . Kindly state the label of the option you pick.
## Result b

====

Target: human FGF-1 (flg) receptor tyrosine kinase (Homo sapiens, UniProt P11362)
Construct: amplify a fragment of DNA that codes for the intracellular tyrosine kinase domain
Sequence (P11362 478-767 limits assumed): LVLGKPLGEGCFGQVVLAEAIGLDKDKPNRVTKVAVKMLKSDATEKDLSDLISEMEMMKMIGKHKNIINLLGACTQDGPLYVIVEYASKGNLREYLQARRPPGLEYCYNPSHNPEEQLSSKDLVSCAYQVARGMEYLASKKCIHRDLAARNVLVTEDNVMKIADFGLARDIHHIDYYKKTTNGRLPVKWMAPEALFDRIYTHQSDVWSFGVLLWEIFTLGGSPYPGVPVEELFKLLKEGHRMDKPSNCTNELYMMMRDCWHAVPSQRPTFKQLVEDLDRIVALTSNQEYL
Assay: FGF receptor tyrosine kinase assay
pIC50: −log10 of the molar value.
The entries below are paired with their reported pIC50.

Examples from the recorded data:
Molecule: Cn1c(=O)c(-c2ccccc2)nc2cnc(Nc3ccc(N4CCOCC4)cc3)nc21 [Compound 1]
pIC50: < 4.30
//
Molecule: Cn1c(=O)c(-c2c(Cl)cccc2Cl)nc2cnc(Nc3ccc(N4CCOCC4)cc3)nc21 [Compound 2]
pIC50: < 4.30

We next turn to a different molecule, shown below.
## Task Requested field: pIC50. Item: CCN(CC)C(=O)c1ccc(Nc2ncc3nc(-c4c(Cl)cccc4Cl)c(=O)n(C)c3n2)cc1 [Compound 6]
## Result 7.30

====

Target: mouse PDGF-β receptor tyrosine kinase (Mus musculus)
Construct: amplify a fragment of DNA that codes for the intracellular tyrosine kinase domain
Sequence (P05622 599-961 limits assumed): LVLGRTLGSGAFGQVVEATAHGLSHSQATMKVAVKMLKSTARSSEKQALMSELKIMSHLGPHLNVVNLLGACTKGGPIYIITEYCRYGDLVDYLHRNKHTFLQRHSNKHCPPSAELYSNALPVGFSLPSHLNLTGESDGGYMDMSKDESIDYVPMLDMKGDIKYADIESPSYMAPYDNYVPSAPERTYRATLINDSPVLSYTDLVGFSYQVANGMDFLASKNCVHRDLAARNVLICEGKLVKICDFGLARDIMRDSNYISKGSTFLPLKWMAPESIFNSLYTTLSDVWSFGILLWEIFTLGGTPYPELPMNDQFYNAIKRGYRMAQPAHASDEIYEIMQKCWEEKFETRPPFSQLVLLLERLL
Experiment: PDGF receptor tyrosine kinase assay
pIC50: −log10 of the molar value.
Value kind: pIC50

Compound: CCN(CC)CCOc1ccc(Nc2ncc3nc(-c4ccccc4)c(=O)n(C)c3n2)cc1 [Compound 3]
pIC50: 5.12
//
Compound: Cn1c(=O)c(-c2c(Cl)cccc2Cl)nc2cnc(Nc3ccc(N4CCOCC4)cc3)nc21 [Compound 2]
pIC50: 5.11

I. CCN(CC)CCOc1ccc(Nc2ncc3nc(-c4c(Cl)cccc4Cl)c(=O)n(C)c3n2)cc1 [Compound 4]
II. CN1CCN(c2ccc(Nc3ncc4ncc(=O)n(C5CCCC5)c4n3)cc2)CC1 [Compound 8]
III. Cn1c(=O)c(-c2c(Cl)cncc2Cl)nc2cnc(Nc3ccc(N4CCOCC4)cc3)nc21 [Compound 12]
IV. NC1CCN(c2ccc(Nc3ncc4ncc(=O)n(C5CCCC5)c4n3)cc2)C1 (centres unmarked) [Compound 17]
V. O=c1cnc2cnc(Nc3ccc(N4CCOCC4)cc3)nc2n1C1CCCC1 [Compound 7]
## Task Arrange these compounds by their pIC50, starting with the largest number. Arrange the labels as the request states and list them.
## Result I, IV, II, V, III

====

Parameter pIC50: see the listing below.
Target: N-terminal truncated Wee 1 (Homo sapiens, UniProt P30291)
Sequence (P30291 299-569 limits assumed): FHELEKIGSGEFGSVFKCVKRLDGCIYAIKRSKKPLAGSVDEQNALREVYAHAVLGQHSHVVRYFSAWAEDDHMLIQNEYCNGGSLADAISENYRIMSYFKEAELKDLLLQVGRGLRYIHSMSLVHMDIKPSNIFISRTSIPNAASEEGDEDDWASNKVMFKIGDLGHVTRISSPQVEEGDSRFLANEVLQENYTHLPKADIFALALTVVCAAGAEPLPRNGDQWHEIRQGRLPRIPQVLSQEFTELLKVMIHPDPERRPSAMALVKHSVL
Assay: Wee 1 OY kinase assay
Details: read-out: WEE1OY IC50
pIC50: −log10 of the molar value.

// known answers, use as guide
Smiles notation: CCN(CC)C(=O)c1ccc(Nc2ncc3nc(-c4c(Cl)c(OC)nc(OC)c4Cl)c(=O)n(C)c3n2)cc1
pIC50: < 4.30
--
Smiles notation: Cc1nc2cnc(Nc3ccc(N4CCN(C)CC4)cc3)nc2n(C2CCCC2)c1=O
pIC50: < 4.30
--
Smiles notation: Cc1nc2cnc(Nc3ccc(N4CCOCC4)cc3)nc2n(C2CCCC2)c1=O
pIC50: < 4.30
--
Smiles notation: Cn1c(=O)c(-c2c(Br)cncc2Br)nc2cnc(Nc3ccc(N4CCOCC4)cc3)nc21
pIC50: 5.13
--
Smiles notation: CCN(CC)CCOc1ccc(Nc2ncc3nc(-c4c(Cl)cncc4Cl)c(=O)n(C)c3n2)cc1
pIC50: 5.15

## Task State its pIC50 on N-terminal truncated Wee 1 (Homo sapiens, UniProt P30291): O=c1cnc2cnc(Nc3ccncc3)nc2n1C1CCCC1
## Result < 4.30

## Task Any idea what pIC50 came out for CCN(CC)CCOc1ccc(Nc2ncc3nc(-c4ccccc4)c(=O)n(C)c3n2)cc1 on N-terminal truncated Wee 1 (Homo sapiens, UniProt P30291)?
## Result < 4.30

## Task What is its pIC50 for N-terminal truncated Wee 1 (Homo sapiens, UniProt P30291)? Entry: CN1CCN(c2ccc(Nc3ncc4ncc(=O)n(C5CCCC5)c4n3)cc2)CC1
## Result < 4.30

## Task Query pIC50 on N-terminal truncated Wee 1 (Homo sapiens, UniProt P30291) for O=c1cnc2cnc(Nc3ccc(N4CCOCC4)cc3)nc2n1C1CCCC1
## Result < 4.30
